# Experimental target: Muscarinic acetylcholine receptor M2 (Homo sapiens, UniProt P08172)
# Sequence (P08172 whole entry): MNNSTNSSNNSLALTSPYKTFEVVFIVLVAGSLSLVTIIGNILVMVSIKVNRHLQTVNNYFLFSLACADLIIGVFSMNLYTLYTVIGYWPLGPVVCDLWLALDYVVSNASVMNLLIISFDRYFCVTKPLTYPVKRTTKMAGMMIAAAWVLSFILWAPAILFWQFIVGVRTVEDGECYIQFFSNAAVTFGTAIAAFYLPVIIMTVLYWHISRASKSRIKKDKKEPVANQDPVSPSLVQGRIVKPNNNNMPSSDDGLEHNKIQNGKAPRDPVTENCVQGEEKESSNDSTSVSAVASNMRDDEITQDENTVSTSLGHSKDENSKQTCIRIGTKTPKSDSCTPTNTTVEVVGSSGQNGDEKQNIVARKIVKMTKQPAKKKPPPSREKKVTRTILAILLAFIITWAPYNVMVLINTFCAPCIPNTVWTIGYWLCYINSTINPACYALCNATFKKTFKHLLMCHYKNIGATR
# Test protocol: Displacement of 4-(2-((1E,3E)-5-((E)-3,3-Dimethyl-1-(6-oxo-6-((2-(4-(4-(1-(2-oxo-2-(11-oxo-10,11-dihydro-5H-dibenzo[b,e][1,4]diazepin-5-yl)ethyl)piperidin-4-yl)butyl)piperazin-1-yl)ethyl)amino)hexyl)-5-sulfoindolin-2-ylidene)penta-1,3-dien-1-yl)-3,3-dimethyl-3H-indol-1-ium-1-yl)butane-1-sulfonate Bis(hydrotrifluoroacetate) fluorescent tracer from human muscarinic M2 receptor expressed in CHO-K9 cells by FACSCalibur flow cytometry
# Type: cell-based
Readout name: Ki (nM)

INSERT INTO assay_data (smiles_string, measured) VALUES
  ('C[N+](C)(CCCCCC[N+](C)(C)CCCN1C(=O)c2ccccc2C1=O)CCCN1C(=O)c2ccccc2C1=O', 407);
